The values you see were collected from ChEMBL document CHEMBL1145740.

test system: Mus musculus; assay: Intravenous hypnotic dose that caused a loss of righting reflex for a minimum period of 30s in 50% of treated mice determined by probit analysis.; type: functional
READOUT: HD50 (µM/kg)
Answers are plain numbers, in µM/kg.

Below: 5 molecules and their reported HD50.
- COC(=O)CC(C(=O)Oc1c(OC)cccc1OC)N1CCCCC1 (stereo unspecified): 26.4
- COc1cccc(OC)c1OC(=O)C(CC(=O)N1CCCCC1)N1CCCCC1 (stereo unspecified): 39
- COC(=O)CC(C(=O)Oc1c(OC)cc(C)cc1OC)N1CCCCCC1 (stereo unspecified): 26
- COC(=O)CC(C(=O)Oc1c(OC)cccc1OC)N1CCCCCC1 (stereo unspecified): 22.9
- COc1cc(C)cc(OC)c1OC(=O)C(CCSC)N1CCCC1 (stereo unspecified): 31.4

Let us examine a further case.
Please report the recorded HD50 for COc1cccc(OC)c1OC(=O)C(CCSC)N1CCCC1 (stereo unspecified) . 40
